Experimental Target: thymidine phosphorylase (EcTP) (Escherichia coli)
Construct: purchased
Assay Comment: biochemical

- Compound: "COC(=O)C1(O)c2ccccc2C(=O)C1(O)CC=C(C)C (stereo not shown) [Indanone derivative (5)]"
  Ki (µM): 7.1

###

Experimental Target: recombinant EcTP enzyme (thymidine phosphorylase) (Escherichia coli, UniProt P07650)
Construct: purchased
Assay Comment: biochemical
Method: In this study, we utilized commercially available recombinant EcTP enzyme as a model for TP inhibition assessment due to its structural similarities with mammalian TP enzymes. […] Subsequently, 1.5 mM of thymidine substrate was added, and absorbance changes were monitored for 10 min at 290 nm using a microplate reader. […] Enzyme activity was assessed by measuring absorbance changes for an additional 10 min. […]
pIC50: −log10 of the molar value.

- Compound: "COC(=O)C1(O)c2ccccc2C(=O)C1(O)CC=C(C)C (stereo not shown)"
  Experimental Target: "recombinant EcTP enzyme (thymidine phosphorylase) (Escherichia coli, UniProt P07650)"
  pIC50: 5.74

###

Experimental Target: thymidine phosphorylase (EcTP) (Escherichia coli, UniProt P07650)
Construct: purchased
Sequence (P07650 whole entry): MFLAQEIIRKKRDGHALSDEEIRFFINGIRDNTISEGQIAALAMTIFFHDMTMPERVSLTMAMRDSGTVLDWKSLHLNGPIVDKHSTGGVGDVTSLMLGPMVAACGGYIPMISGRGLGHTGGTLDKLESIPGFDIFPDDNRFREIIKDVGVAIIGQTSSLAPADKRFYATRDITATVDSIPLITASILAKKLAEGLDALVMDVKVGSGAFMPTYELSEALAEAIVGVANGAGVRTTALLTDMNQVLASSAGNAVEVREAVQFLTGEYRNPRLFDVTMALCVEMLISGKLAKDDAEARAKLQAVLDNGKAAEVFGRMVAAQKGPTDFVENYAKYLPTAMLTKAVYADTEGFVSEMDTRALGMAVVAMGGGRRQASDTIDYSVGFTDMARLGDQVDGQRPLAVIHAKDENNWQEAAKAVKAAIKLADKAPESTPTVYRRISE
Assay Comment: biochemical
Test Context: dissociation constant from secondary replot of Lineweaver-Burk and Dixon plots; unit printed in text b13 only; read-out: Ki ± SEM
pKi: −log10 of the molar value.
# pKi per record follows

- Query Smiles: "CC(C)=CCC1=C(O)C(=O)c2ccccc2C1=O"
  pKi: 5.34
- Query Smiles: "CC1(C)CCC2=C(O1)C(=O)c1ccccc1C2=O"
  pKi: 5.31

###

Experimental Target: recombinant EcTP enzyme (thymidine phosphorylase) (Escherichia coli)
Construct: purchased
Assay Comment: biochemical
Test Context: 500 µM test compound, 0.058 U EcTP, 1.5 mM thymidine, 30°C; read-out: % Inhibition
Outcome Measure: inhibition at 500 µM (%)

- Compound: "CC1(C)CCC2=C(O1)C(=O)c1ccccc1C2=O"
  Outcome Measure: "inhibition at 500 µM"
  Value Measured: 88.3
- Compound: "CC(C)=C(C)[C@H]1C[C@]2(C)OC3=C(C(=O)c4ccccc4C3=O)[C@H]3[C@@H]2[C@@]12C(=O)c1ccccc1[C@@]3(O)C2=O"
  Outcome Measure: "inhibition at 500 µM"
  Value Measured: 87.1
- Compound: "CC1(C)C=CC2=C(O1)C(=O)c1ccccc1C2=O [Dehydro‐α‐lapachone (4), Dehydro‐α‐lapachone]"
  Outcome Measure: "inhibition at 500 µM"
  Value Measured: 82.6
- Compound: "CC(C)=CCC1=C(O)C(=O)c2ccccc2C1=O"
  Outcome Measure: "inhibition at 500 µM"
  Value Measured: 86.2
